Recorded values, source paper PMC6337588.

Collected melting point values appear next to each entry.

GET /values?readout=melting point&item= O=C(O)C(=Cc1cccc(Oc2ccccc2)c1)c1ccc(O)cc1 [Compound 1ii] 105 to 107 °C

What value of melting point has been recorded for this entry: CC(C)(C)c1cc(C=C(C(=O)O)c2ccc(O)cc2)c(O)c(C(C)(C)C)c1 [Compound 6ii] 134 to 136 °C

Fill in the blank: the reported melting point of CC(=Cc1ccccc1)C=C(C(=O)O)c1ccc(O)cc1 [Compound 5ii] is ____. 90 to 91 °C

Sample CN(C)c1ccc(C=CC=C(C(=O)O)c2ccc(O)cc2)cc1 [Compound 3ii] — what was its melting point? 204 to 205 °C

Give its melting point value. Item: CC(C)(C)c1cc(C=C(C(=O)O)c2ccc(Br)cc2)c(O)c(C(C)(C)C)c1 [Compound 6i] 168 to 170 °C

More entries:
Given the compound CC(C)(C)c1cc(C=C(C(=O)O)c2ccc(Br)cc2)cc(C(C)(C)C)c1O [Compound 7i] , what is its reported melting point? 137 to 138 °C

So what's the measured melting point for this one? CC(=Cc1ccccc1)C=C(C(=O)O)c1ccc(Br)cc1 [Compound 5i] 128 to 129 °C

Which melting point is reported for this compound? CC(C)(C)c1cc(C=C(C(=O)O)c2ccc(O)cc2)cc(C(C)(C)C)c1O [Compound 7ii] 139 to 140 °C

# query: melting point of entry O=C(O)C(=CC(Br)=Cc1ccccc1)c1ccc(O)cc1 [Compound 4ii] 155 to 157 °C

* * *

Entries annotated with measured RA% 100 µM 60 min
Assay: Reducing activity of the stable radical DPPH
Format: biochemical
Conditions: 100 µM, 60 min
Give the quantity in %, number only.

// solved cases for RA% 100 µM 60 min follow
Param item = O=C(O)C(=Cc1ccc(OCc2ccc(Br)cc2)cc1)c1ccc(Br)cc1 ; retrieve measured RA% 100 µM 60 min. 40

Which RA% 100 µM 60 min is listed for CC(=Cc1ccccc1)C=C(C(=O)O)c1ccc(O)cc1 ? 41

Request the reported RA% 100 µM 60 min associated with CN(C)c1ccc(C=CC=C(C(=O)O)c2ccc(Br)cc2)cc1 51

Proceeding to the next compound to report its RA% 100 µM 60 min.
# lookup: RA% 100 µM 60 min of CC(C)(C)c1cc(C=C(C(=O)O)c2ccc(Br)cc2)c(O)c(C(C)(C)C)c1 39
